These data points were gathered from patent US12319739.

Assayed Target: T1, hMSLN-His-Avi (human, UniProt Q13421 296-598, single biotin on the Avi tag in the biotinylated form)
T1 construct: Monomeric; also called human MSLN-His-Avi; hMSLN-Avi-His
T1 sequence (Q13421 other isoform, or with tags, fused parts or gaps): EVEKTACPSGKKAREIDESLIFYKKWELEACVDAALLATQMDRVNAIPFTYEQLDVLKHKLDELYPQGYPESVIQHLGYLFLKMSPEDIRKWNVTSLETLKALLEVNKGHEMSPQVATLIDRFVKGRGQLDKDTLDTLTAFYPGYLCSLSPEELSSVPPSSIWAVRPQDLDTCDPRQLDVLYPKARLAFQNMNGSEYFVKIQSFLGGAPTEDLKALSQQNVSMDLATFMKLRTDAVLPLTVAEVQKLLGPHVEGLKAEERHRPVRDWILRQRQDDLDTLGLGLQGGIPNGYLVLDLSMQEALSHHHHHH
Assay Text: SPR, hMSLN-His-Avi immobilised ~100 RU, mAb2 injected
Provide the reported Kd of each item.
Numbers only, in nM.

Some solved cases for reference:
Binder	Readout Unit	Kd
FS22-172-003-AA/FS28-024-053 (bispecific antibody, human IgG1, kappa, L234A L235A, V domains shown, IgG1 mAb^2 with LALA) VH: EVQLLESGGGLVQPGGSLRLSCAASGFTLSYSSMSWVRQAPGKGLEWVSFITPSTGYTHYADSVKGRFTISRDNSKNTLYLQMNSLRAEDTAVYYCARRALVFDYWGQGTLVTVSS VL: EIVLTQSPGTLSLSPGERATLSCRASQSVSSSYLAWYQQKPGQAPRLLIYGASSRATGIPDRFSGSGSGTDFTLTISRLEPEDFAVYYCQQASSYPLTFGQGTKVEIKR	nM	0.42
FS22-172-003-AA/FS28-256-027 (bispecific antibody, human IgG1, kappa, L234A L235A, V domains shown, IgG1 mAb^2 with LALA) VH: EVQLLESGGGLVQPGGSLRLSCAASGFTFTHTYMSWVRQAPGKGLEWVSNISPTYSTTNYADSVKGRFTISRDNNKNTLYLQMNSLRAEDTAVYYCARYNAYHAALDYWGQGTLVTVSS VL: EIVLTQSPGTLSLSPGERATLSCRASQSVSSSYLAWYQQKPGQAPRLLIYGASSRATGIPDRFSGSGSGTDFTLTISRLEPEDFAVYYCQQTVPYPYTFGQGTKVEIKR	nM	0.78

What value of Kd has been reported for the following binder? FS22-172-003-AA/FS28-024-060 (bispecific antibody, human IgG1, kappa, L234A L235A, V domains shown, IgG1 mAb^2 with LALA) VH: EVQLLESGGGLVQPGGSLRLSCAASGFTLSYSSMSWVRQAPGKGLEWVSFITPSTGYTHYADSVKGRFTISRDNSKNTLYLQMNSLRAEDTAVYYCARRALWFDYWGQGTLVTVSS VL: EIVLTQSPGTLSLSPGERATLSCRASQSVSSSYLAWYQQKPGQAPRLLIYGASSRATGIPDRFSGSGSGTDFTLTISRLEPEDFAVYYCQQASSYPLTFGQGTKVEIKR
0.13
